Would you mind telling me the reported pIC50 of each entry?
- System: HeLa
- ASSAY DETAILS: Cytotoxicity in human HeLa cells assessed as reduction in cell viability incubated for 72 hrs by SRB assay
- Format: functional, cell-based
Give bare numbers, as −log10 of the molar value.

Return pIC50 measured with HeLa given this molecule: `O=C(Nc1ccn([C@@H]2O[C@H](CO)[C@@H](O)C2(F)F)c(=O)n1)OCc1cn(C[C@H]2O[C@@H](n3ccc(NC(=O)OCc4ccccc4)nc3=O)C(F)(F)[C@@H]2O)nn1`
5.70

Return pIC50 measured with HeLa given this molecule: `CC(C)(C)OC(=O)O[C@@H]1[C@@H](Cn2cc(CNc3ccn([C@@H]4O[C@H](CO)[C@@H](O)C4(F)F)c(=O)n3)nn2)O[C@@H](n2ccc(NC(=O)OCc3ccccc3)nc2=O)C1(F)F`
5.51

Now let's try a different one.
Return pIC50 measured with HeLa given this molecule: `Cc1cn([C@H]2C[C@H](OC(=O)OC(C)(C)C)[C@@H](Cn3cc(CNc4ccn([C@@H]5O[C@H](CO)[C@@H](O)C5(F)F)c(=O)n4)nn3)O2)c(=O)[nH]c1=O`
5.20

###

- Tested on: NHDF
- ASSAY DETAILS: Cytotoxicity in human NHDF cells assessed as reduction in cell viability incubated for 72 hrs by SRB assay
- Format: cell-based
READOUT NAME: IC50 (µM)
Give bare numbers, in µM.

Would you please look over these solved cases?
Return IC50 measured with NHDF given this molecule: Nc1ccn([C@@H]2O[C@H](CO)[C@@H](O)C2(F)F)c(=O)n1 [GEMCITABINE]
19.4

Return IC50 measured with NHDF given this molecule: `CC(C)(C)OC(=O)O[C@@H]1[C@@H](Cn2cc(COC(=O)Nc3ccn([C@@H]4O[C@H](CO)[C@@H](O)C4(F)F)c(=O)n3)nn2)O[C@@H](n2ccc(NC(=O)OCc3ccccc3)nc2=O)C1(F)F`
4.69

Now let's try a different one.
Return IC50 measured with NHDF given this molecule: `Cc1cn([C@H]2C[C@H](O)[C@@H](Cn3cc(COC(=O)Nc4ccn([C@@H]5O[C@H](CO)[C@@H](O)C5(F)F)c(=O)n4)nn3)O2)c(=O)[nH]c1=O`
16.9

###

Would you mind telling me the reported pIC50 of each entry?
- System: KB
- ASSAY DETAILS: Cytotoxicity in human KB cells assessed as reduction in cell viability incubated for 72 hrs by SRB assay
- Assay type: functional, cell-based
Answers are plain numbers, as −log10 of the molar value.

Quick check: pIC50 of `Cc1cn([C@H]2C[C@H](OC(=O)OC(C)(C)C)[C@@H](Cn3cc(CNc4ccn([C@@H]5O[C@H](CO)[C@@H](O)C5(F)F)c(=O)n4)nn3)O2)c(=O)[nH]c1=O` ?
5.15

Quick check: pIC50 of `Nc1ccn([C@@H]2O[C@H](Cn3cc(CNc4ccn([C@@H]5O[C@H](CO)[C@@H](O)C5(F)F)c(=O)n4)nn3)[C@@H](O)C2(F)F)c(=O)n1` ?
4.80

Quick check: pIC50 of `Cc1cn([C@H]2C[C@H](n3cc(CNc4ccn([C@@H]5O[C@H](CO)[C@@H](O)C5(F)F)c(=O)n4)nn3)[C@@H](CO)O2)c(=O)[nH]c1=O` ?
4.91

Quick check: pIC50 of `Cc1cn([C@H]2C[C@H](OC(=O)OC(C)(C)C)[C@@H](Cn3cc(COC(=O)Nc4ccn([C@@H]5O[C@H](CO)[C@@H](O)C5(F)F)c(=O)n4)nn3)O2)c(=O)[nH]c1=O` ?
4.97

Quick check: pIC50 of `CC(C)(C)OC(=O)O[C@H]1C[C@H](n2cc(F)c(=O)[nH]c2=O)O[C@@H]1Cn1cc(CNc2ccn([C@@H]3O[C@H](CO)[C@@H](O)C3(F)F)c(=O)n2)nn1` ?
5.34

Quick check: pIC50 of `O=C(Nc1ccn([C@@H]2O[C@H](CO)[C@@H](O)C2(F)F)c(=O)n1)OCc1cn(C[C@H]2O[C@@H](n3ccc(NC(=O)OCc4ccccc4)nc3=O)C(F)(F)[C@@H]2O)nn1` ?
5.70

Quick check: pIC50 of `Cc1cn([C@H]2C[C@H](n3cc(COC(=O)Nc4ccn([C@@H]5O[C@H](CO)[C@@H](O)C5(F)F)c(=O)n4)nn3)[C@@H](CO)O2)c(=O)[nH]c1=O` ?
5.81

Quick check: pIC50 of `CC(C)(C)OC(=O)O[C@@H]1[C@@H](Cn2cc(COC(=O)Nc3ccn([C@@H]4O[C@H](CO)[C@@H](O)C4(F)F)c(=O)n3)nn2)O[C@@H](n2ccc(NC(=O)OCc3ccccc3)nc2=O)C1(F)F` ?
6.02

Give pIC50 for each of the items listed below.
1. CC(C)(C)OC(=O)O[C@@H]1[C@@H](Cn2cc(CNc3ccn([C@@H]4O[C@H](CO)[C@@H](O)C4(F)F)c(=O)n3)nn2)O[C@@H](n2ccc(N)nc2=O)C1(F)F
2. CC(C)(C)OC(=O)O[C@@H]1[C@@H](Cn2cc(COC(=O)Nc3ccn([C@@H]4O[C@H](CO)[C@@H](O)C4(F)F)c(=O)n3)nn2)O[C@@H](n2ccc(N)nc2=O)C1(F)F
3. Nc1ccn([C@@H]2O[C@H](CO)[C@@H](O)C2(F)F)c(=O)n1
4. Cc1cn([C@H]2C[C@H](O)[C@@H](Cn3cc(COC(=O)Nc4ccn([C@@H]5O[C@H](CO)[C@@H](O)C5(F)F)c(=O)n4)nn3)O2)c(=O)[nH]c1=O
5. Cc1cn([C@H]2C[C@H](O)[C@@H](Cn3cc(CNc4ccn([C@@H]5O[C@H](CO)[C@@H](O)C5(F)F)c(=O)n4)nn3)O2)c(=O)[nH]c1=O
6. O=C(Nc1ccn([C@@H]2O[C@H](Cn3cc(CNc4ccn([C@@H]5O[C@H](CO)[C@@H](O)C5(F)F)c(=O)n4)nn3)[C@@H](OC(=O)c3ccccc3)C2(F)F)c(=O)n1)c1ccccc1

1. 5.39
2. 5.67
3. 5.09
4. 4.88
5. 3.88
6. 5.27

Give pIC50 for each of the items listed below.
1. CC(C)(C)OC(=O)O[C@@H]1[C@@H](Cn2cc(CNc3ccn([C@@H]4O[C@H](CO)[C@@H](O)C4(F)F)c(=O)n3)nn2)O[C@@H](n2ccc(NC(=O)OCc3ccccc3)nc2=O)C1(F)F
2. Nc1ccn([C@@H]2O[C@H](Cn3cc(COC(=O)Nc4ccn([C@@H]5O[C@H](CO)[C@@H](O)C5(F)F)c(=O)n4)nn3)[C@@H](O)C2(F)F)c(=O)n1
3. O=C(Nc1ccn([C@@H]2O[C@H](CO)[C@@H](O)C2(F)F)c(=O)n1)OCc1cn(C[C@H]2O[C@@H](n3ccc(NC(=O)c4ccccc4)nc3=O)C(F)(F)[C@@H]2OC(=O)c2ccccc2)nn1
4. O=C(Nc1ccn([C@@H]2O[C@H](CO)[C@@H](O)C2(F)F)c(=O)n1)OCc1cn(C[C@H]2O[C@@H](n3cc(F)c(=O)[nH]c3=O)C[C@@H]2O)nn1
5. O=C(Nc1ccn([C@@H]2O[C@H](Cn3cc(CNc4ccn([C@@H]5O[C@H](CO)[C@@H](O)C5(F)F)c(=O)n4)nn3)[C@@H](O)C2(F)F)c(=O)n1)OCc1ccccc1

5.51
4.95
5.50
5.19
5.38

Give pIC50 for each of the items listed below.
1. Cc1cn([C@H]2C[C@H](N=[N+]=[N-])[C@@H](CO)O2)c(=O)[nH]c1=O
2. O=c1[nH]c(=O)n([C@H]2C[C@H](O)[C@@H](Cn3cc(CNc4ccn([C@@H]5O[C@H](CO)[C@@H](O)C5(F)F)c(=O)n4)nn3)O2)cc1F

1. 5.01
2. 4.09

###

- ASSAY DETAILS: Selectivity index, ratio of IC50 for cytotoxicity in human NHDF cells to IC50 for cytotoxicity in human U87 cells
Would you mind telling me the reported Ratio IC50 of each entry?
Give bare numbers.

Would you please look over these solved cases?
Quick check: Ratio IC50 of `CC(C)(C)OC(=O)O[C@@H]1[C@@H](Cn2cc(COC(=O)Nc3ccn([C@@H]4O[C@H](CO)[C@@H](O)C4(F)F)c(=O)n3)nn2)O[C@@H](n2ccc(NC(=O)OCc3ccccc3)nc2=O)C1(F)F` ?
4.3

Quick check: Ratio IC50 of `O=C(Nc1ccn([C@@H]2O[C@H](CO)[C@@H](O)C2(F)F)c(=O)n1)OCc1cn(C[C@H]2O[C@@H](n3ccc(NC(=O)c4ccccc4)nc3=O)C(F)(F)[C@@H]2OC(=O)c2ccccc2)nn1` ?
2.67

Now let's try a different one.
Quick check: Ratio IC50 of `CC(C)(C)OC(=O)O[C@@H]1[C@@H](Cn2cc(COC(=O)Nc3ccn([C@@H]4O[C@H](CO)[C@@H](O)C4(F)F)c(=O)n3)nn2)O[C@@H](n2ccc(N)nc2=O)C1(F)F` ?
3.99

Measured values drawn from ChEMBL document CHEMBL4385668 for this set.
